target.or.system: 11-beta-hydroxysteroid dehydrogenase 1 (Homo sapiens, UniProt P28845)
Sequence (P28845 whole entry, looked up): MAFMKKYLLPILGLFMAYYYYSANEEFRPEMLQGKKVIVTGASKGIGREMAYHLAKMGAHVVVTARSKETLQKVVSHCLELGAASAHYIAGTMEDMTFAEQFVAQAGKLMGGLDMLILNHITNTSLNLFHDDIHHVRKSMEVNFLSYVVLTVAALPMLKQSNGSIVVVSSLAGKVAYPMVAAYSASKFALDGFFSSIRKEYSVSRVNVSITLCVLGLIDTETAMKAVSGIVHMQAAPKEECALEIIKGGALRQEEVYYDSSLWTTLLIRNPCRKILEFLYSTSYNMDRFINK
assay.summary: Inhibition of human microsomal 11beta-HSD1 overexpressed in HEK293 cells using [3H]-cortisone as substrate assessed as formation of [3H]-cortisol at 10 uM using [3H]cortisone by scintillation proximity assay in presence of NADPH
Consider the following compounds; for each one, report its inhibition.

The following compounds have reported results that may help.
compound=C[C@@H](C[C@@H](O)[C@@H]1OC1(C)C)[C@H]1CC[C@@]2(C)C3=CC[C@H]4C(C)(C)[C@@H](O)CC[C@]4(C)[C@H]3CC[C@]12C target_or_system="11-beta-hydroxysteroid dehydrogenase 1 (Homo sapiens, UniProt P28845)" result="< 50%"
compound=CC(=O)O[C@H]1C[C@@]2(C)[C@H](c3ccoc3)C[C@H]3O[C@]32[C@]2(C)C(=O)C(O)=C3C(C)(C)C(=O)C=C[C@]3(C)[C@@H]12 target_or_system="11-beta-hydroxysteroid dehydrogenase 1 (Homo sapiens, UniProt P28845)" result="> 50%"
compound="C[C@@H]([C@@H]1O[C@@H]1C(O)C(C)(C)O)[C@@H]1CC[C@]2(C)C3=CC[C@H]4C(C)(C)[C@H](O)CC[C@]4(C)[C@H]3CC[C@@]12C (stereo not given in full)" target_or_system="11-beta-hydroxysteroid dehydrogenase 1 (Homo sapiens, UniProt P28845)" result="> 50%"
compound=C[C@@H](C[C@@H](O)[C@H](O)C(C)(C)O)[C@@H]1CC[C@]2(C)C3=CC[C@H]4C(C)(C)C(=O)CC[C@]4(C)[C@H]3CC[C@@]12C target_or_system="11-beta-hydroxysteroid dehydrogenase 1 (Homo sapiens, UniProt P28845)" result="< 50%"

Next compound, please.
What the record says about "C[C@@H](C[C@@H](O)[C@@H]1OC1(C)C)[C@H]1CC[C@@]2(C)C3=CC[C@H]4C(C)(C)C(=O)CC[C@]4(C)[C@H]3CC[C@]12C" : inhibition is < 50%
